pKi: −log10 of the molar value.
System: Plasminogen (Homo sapiens, UniProt P00747) | Read-out: pKi
Sequence (P00747 97-580 limits assumed): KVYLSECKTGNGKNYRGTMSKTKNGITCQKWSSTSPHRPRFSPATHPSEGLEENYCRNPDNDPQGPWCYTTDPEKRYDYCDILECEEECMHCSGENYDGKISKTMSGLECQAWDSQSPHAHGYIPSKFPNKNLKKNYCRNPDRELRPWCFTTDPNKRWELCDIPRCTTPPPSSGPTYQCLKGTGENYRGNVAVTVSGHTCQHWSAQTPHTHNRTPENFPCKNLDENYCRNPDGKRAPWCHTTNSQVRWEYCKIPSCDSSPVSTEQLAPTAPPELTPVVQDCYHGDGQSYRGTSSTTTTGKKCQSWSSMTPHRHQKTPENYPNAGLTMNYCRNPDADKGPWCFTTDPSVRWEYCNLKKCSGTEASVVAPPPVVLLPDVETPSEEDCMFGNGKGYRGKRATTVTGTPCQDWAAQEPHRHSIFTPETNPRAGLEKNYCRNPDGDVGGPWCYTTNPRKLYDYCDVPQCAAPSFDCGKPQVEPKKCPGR
Sequence (P00747 581-810 limits assumed): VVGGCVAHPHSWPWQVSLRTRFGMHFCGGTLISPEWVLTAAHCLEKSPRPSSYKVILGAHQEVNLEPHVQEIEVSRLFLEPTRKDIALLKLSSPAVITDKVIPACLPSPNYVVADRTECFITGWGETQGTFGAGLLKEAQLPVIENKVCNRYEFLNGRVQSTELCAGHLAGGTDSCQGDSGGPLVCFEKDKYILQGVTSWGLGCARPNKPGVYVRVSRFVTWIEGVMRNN
assay-endpoint: pKi

> print(dat)
                            smiles.notation  comparative.sign  measured
1  N=C(N)Nc1ccc(CNC(=O)N2CCN(C(=O)O[C@H]3CCC[C@@H](OC(=O)N4CCN(C(=O)NCc5ccc(N)cc5)CC4)CCC3)CC2)cc1                 <      3.00
2  N=C(N)Nc1ccc(CNC(=O)N2CCN(C(=O)OCC34CCC(COC(=O)N5CCN(C(=O)NCc6ccc(NC(=N)N)cc6)CC5)(CC3)CC4)CC2)cc1                 =      5.52
3  N=C(N)Nc1ccc(CNC(=O)N2CCN(C(=O)OC[C@H]3CC[C@H](COC(=O)N4CCN(C(=O)NCc5ccc(NC(=N)N)cc5)CC4)CC3)CC2)cc1                 <      3.00
4  N=C(N)c1ccc(CCC(=O)N2CCN(C(=O)O[C@H]3CCC[C@@H](OC(=O)N4CCN(C(=O)CCc5ccc(C(=N)N)cc5)CC4)CCC3)CC2)cc1                 =      4.18
5  N=C(N)Nc1ccc(CNC(=O)N2CCN(C(=O)O[C@H]3CCC[C@@H](OC(=O)N4CCN(C(=O)NCC5CCNCC5)CC4)CCC3)CC2)cc1                 <      3.00
6  N=C(N)Nc1ccc(CNC(=O)N2CCN(C(=O)OCC34CC5CC(C3)CC(COC(=O)N3CCN(C(=O)NCc6ccc(NC(=N)N)cc6)CC3)(C5)C4)CC2)cc1                 =      3.24
